I'd be grateful if you could share measured ELISA_avg for these entries.
- test-target: T1, CD123 (Homo sapiens (Human), UniProt P26951 19-305, limits assumed)
- T1 construct: The CD123 construct used in the ELISA is not described; also called CD123-Signal
- T1 sequence: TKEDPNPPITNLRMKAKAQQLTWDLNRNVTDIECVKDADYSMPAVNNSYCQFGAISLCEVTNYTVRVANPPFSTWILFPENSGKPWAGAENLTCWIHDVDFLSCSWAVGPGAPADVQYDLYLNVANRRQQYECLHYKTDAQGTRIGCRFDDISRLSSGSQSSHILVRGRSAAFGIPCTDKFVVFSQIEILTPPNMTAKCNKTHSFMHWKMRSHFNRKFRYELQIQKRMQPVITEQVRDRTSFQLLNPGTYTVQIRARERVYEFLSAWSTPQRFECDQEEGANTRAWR
- procedure-text: ELISA
- Design: unit not given here
Answers are plain numbers.

binder	ELISA_avg
D domain of SEQ ID NO: 448 (designed binder) MGSWVEFEMRLDAIVGRLYALGGSEAELAAFEKEIAAFESELQAYKGKGNPEVEKLRRWAANIRSELQAYRHN	25.3
D domain of SEQ ID NO: 582 (designed binder) MGSWSEFDQRLEAIWNRLDALGGSEAELADFEREIAYFENQLQWYKGKGNPEVEALNNEAFAIVDELGAYRHN	3.4

ELISA_avg lookup needed for D domain of SEQ ID NO: 494 (designed binder) MGSWVTFKDELADIKDFLEALGGSEAELAFFEVDIAEFEAELQFYKGKGNPEVEALRKEAAAIRDELQAYRHN , thanks. 7.6
